- measurement notes: Solubility of naringenin in various solvents
- Assay type: physicochemical
- measurement setup: 80% ethanol, 25 °C, organic solvent or mixture
measured metric: solubility

molecule	measured metric	result
O=C1CC(c2ccc(O)cc2)Oc2cc(O)cc(O)c21 (stereo not shown)	solubility	~60 mg/mL

----------
- measurement notes: Solubility of naringenin in various solvents
- Type: physicochemical
- measurement setup: water, 25 °C
measured metric: solubility

compound	result
O=C1CC(c2ccc(O)cc2)Oc2cc(O)cc(O)c21 (stereo not shown) [naringenin]	50 µg/mL
